Would you kindly list inhibition for each of these molecules?
Biological target: Thymidine kinase, cytosolic (Homo sapiens) (UniProt P04183)
Sequence (P04183 whole entry): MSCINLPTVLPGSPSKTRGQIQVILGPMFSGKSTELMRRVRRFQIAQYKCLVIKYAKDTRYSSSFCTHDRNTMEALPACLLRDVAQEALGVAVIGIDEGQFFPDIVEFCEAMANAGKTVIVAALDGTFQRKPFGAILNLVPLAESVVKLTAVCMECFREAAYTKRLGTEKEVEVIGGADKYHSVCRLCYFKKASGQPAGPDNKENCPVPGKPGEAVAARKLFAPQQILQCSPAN
Assay: […] thymidine kinase activity from K562 mammalian cells at 500 uM concentration
Type: cell-based
Answers are plain numbers, in %.

Below: 5 molecules and their reported inhibition.
Cc1cn([C@H]2C[C@H](CO)[C@@H](CO)O2)c(=O)[nH]c1=O :: 3
Cc1cn([C@H]2C[C@H](CF)[C@@H](CO)O2)c(=O)[nH]c1=O :: 5.4
Cc1cn([C@@H]2O[C@H](CO)[C@@H](O)[C@@H]2O)c(=O)[nH]c1=O :: 5
Cc1cn([C@@H]2O[C@H](CO)[C@@H](CO)[C@H]2O)c(=O)[nH]c1=O :: 3
Cc1cn([C@@H]2O[C@H](CO)[C@@H](CF)[C@H]2O)c(=O)[nH]c1=O :: 2.5

Below are 2 molecules. Give each one its inhibition.
1. Cc1cn([C@@H]2O[C@H](CO)[C@@H](CO)[C@@H]2O)c(=O)[nH]c1=O
2. Cc1cn([C@@H]2O[C@H](CO)[C@@H](CF)[C@@H]2O)c(=O)[nH]c1=O

Reply text:
[0.7, 7.1]
